# TARGET_OR_SYSTEM: gp43exo− (bacteriophage T4 DNA polymerase) (Enterobacteria phage T4, UniProt P04415, D219A)
# PROCEDURE_TEXT: biochemical
# CONDITION_DESCRIPTION: KD
pKd: −log10 of the molar value.

[
  {
    "MOLECULE": "O=P(O)(O)OP(=O)(O)OP(=O)(O)OC[C@H]1O[C@@H](n2ccc3cc(-c4ccccc4)ccc32)C[C@@H]1O",
    "pKd": "~4.60"
  }
]

* * *

Below, each entry is listed with its recorded Kd.
# TARGET_OR_SYSTEM: gp43exo− (bacteriophage T4 DNA polymerase) (Enterobacteria phage T4, UniProt P04415, D219A)
# PROCEDURE_TEXT: biochemical
# CONDITION_DESCRIPTION: read-out: KD
# Sequence (P04415 whole entry D219A, looked up): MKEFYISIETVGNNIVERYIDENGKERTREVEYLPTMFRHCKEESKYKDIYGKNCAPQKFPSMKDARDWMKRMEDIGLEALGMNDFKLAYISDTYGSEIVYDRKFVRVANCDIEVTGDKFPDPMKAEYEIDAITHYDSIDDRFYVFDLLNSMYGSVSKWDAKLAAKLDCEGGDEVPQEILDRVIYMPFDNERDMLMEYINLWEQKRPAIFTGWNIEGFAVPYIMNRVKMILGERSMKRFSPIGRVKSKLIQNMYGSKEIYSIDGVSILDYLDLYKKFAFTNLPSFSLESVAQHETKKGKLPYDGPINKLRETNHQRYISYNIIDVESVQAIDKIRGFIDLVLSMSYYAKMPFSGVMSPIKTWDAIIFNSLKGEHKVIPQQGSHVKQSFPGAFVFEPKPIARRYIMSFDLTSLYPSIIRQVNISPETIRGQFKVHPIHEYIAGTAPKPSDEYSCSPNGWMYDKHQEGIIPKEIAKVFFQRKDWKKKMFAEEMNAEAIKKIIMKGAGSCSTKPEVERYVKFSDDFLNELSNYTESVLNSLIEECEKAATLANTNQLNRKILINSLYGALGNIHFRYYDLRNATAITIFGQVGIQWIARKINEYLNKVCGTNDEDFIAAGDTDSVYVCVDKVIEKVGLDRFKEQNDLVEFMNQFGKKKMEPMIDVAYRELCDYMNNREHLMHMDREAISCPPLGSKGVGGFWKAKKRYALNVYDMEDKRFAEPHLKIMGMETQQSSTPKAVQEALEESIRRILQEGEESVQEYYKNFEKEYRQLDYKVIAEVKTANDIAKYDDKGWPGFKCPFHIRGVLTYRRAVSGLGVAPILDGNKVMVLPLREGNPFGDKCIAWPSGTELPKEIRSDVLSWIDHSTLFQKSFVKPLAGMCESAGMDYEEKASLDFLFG

[
  {
    "COMPOUND": "Nc1nc(Cl)c2ncn([C@H]3C[C@H](O)[C@@H](COP(=O)(O)OP(=O)(O)OP(=O)(O)O)O3)c2n1 [6-Cl-2APTP]",
    "UNIT_DESCRIPTOR": "µM",
    "Kd": 71
  },
  {
    "COMPOUND": "O=P(O)(O)OP(=O)(O)OP(=O)(O)OC[C@H]1O[C@@H](n2cnc3c(Cl)ncnc32)C[C@@H]1O [6-Cl-dATP]",
    "UNIT_DESCRIPTOR": "µM",
    "Kd": 83
  },
  {
    "COMPOUND": "CNc1nc2c(ncn2[C@H]2C[C@H](O)[C@@H](COP(=O)(O)OP(=O)(O)OP(=O)(O)O)O2)c(=O)[nH]1 [N^2-methyl dGTP]",
    "UNIT_DESCRIPTOR": "µM",
    "Kd": 245
  },
  {
    "COMPOUND": "O=c1[nH]cnc2c1ncn2[C@H]1C[C@H](O)[C@@H](COP(=O)(O)OP(=O)(O)OP(=O)(O)O)O1 [dITP]",
    "UNIT_DESCRIPTOR": "µM",
    "Kd": 103
  },
  {
    "COMPOUND": "Nc1nc(N)c2ncn([C@H]3C[C@H](O)[C@@H](COP(=O)(O)OP(=O)(O)OP(=O)(O)O)O3)c2n1 [2,6-DAPTP]",
    "UNIT_DESCRIPTOR": "µM",
    "Kd": 900
  }
]

* * *

Below, each entry is listed with its recorded kpol higher/faster than that for dATP.
# TARGET_OR_SYSTEM: gp43exo− (bacteriophage T4 DNA polymerase) (Enterobacteria phage T4, UniProt P04415, D219A)
# PROCEDURE_TEXT: biochemical
MEASURED_PROPERTY: kpol higher/faster than that for dATP (fold)

[
  {
    "COMPOUND": "CNc1ncnc2c1ncn2[C@H]1C[C@H](O)[C@@H](COP(=O)(O)OP(=O)(O)OP(=O)(O)O)O1 [N^6-methyl dATP]",
    "MEASURED_PROPERTY": "kpol higher/faster than that for dATP",
    "OBS_VALUE": 40
  },
  {
    "COMPOUND": "Nc1nc(N)c2ncn([C@H]3C[C@H](O)[C@@H](COP(=O)(O)OP(=O)(O)OP(=O)(O)O)O3)c2n1 [2,6-DAPTP]",
    "MEASURED_PROPERTY": "kpol higher/faster than that for dATP",
    "OBS_VALUE": 16
  },
  {
    "COMPOUND": "O=P(O)(O)OP(=O)(O)OP(=O)(O)OC[C@H]1O[C@@H](n2cnc3c(Cl)ncnc32)C[C@@H]1O [6-Cl-dATP]",
    "MEASURED_PROPERTY": "kpol higher/faster than that for dATP",
    "OBS_VALUE": 2
  }
]
